subject.of.test: huPD-L1 (Homo sapiens, UniProt Q9NZQ7)
Sequence (Q9NZQ7 19-290): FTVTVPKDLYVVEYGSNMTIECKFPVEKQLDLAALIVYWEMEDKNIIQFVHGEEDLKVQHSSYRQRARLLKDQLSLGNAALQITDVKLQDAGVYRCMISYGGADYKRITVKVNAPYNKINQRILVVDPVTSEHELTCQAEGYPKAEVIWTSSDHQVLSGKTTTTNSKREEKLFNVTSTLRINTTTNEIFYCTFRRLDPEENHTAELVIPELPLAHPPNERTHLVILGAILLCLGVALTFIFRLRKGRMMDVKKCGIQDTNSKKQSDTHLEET
method.notes: Flow binding to CHO cells stably expressing PD-L1
Parameters: huCTLA4 and huPD-L1, full-length mammalian surface expression constructs were generated; expressed in transfected cells; host or cells: CHO cells, lentiviral transduction, sorted to >98% purity
measurement.context: Table E23; ratio of MFI at 33.3 nM
Experimental: Binding of selected immunomodulatory fusion proteins to cognate binding partners was assessed. […] Cells were sorted in a Bio-Rad S3 Cell Sorter (Bio-Rad Corp., USA) to >98% purity. […] For staining and analysis by flow cytometry, 100,000 cells of appropriate transfected cells were plated in 96-well round bottom plates. […] Cells were then washed twice with 150 μL/well stain buffer, fixed in 2% formaldehyde/PBS, and analyzed on Intellicyt flow cytometer (Intellicyt Corp., USA). […]
quantity.measured: Ratio of PDL1:CD28

Value lookup for Ratio of PDL1:CD28; key = H18Y/A26P/E35D/M471/V68M/A71G (protein) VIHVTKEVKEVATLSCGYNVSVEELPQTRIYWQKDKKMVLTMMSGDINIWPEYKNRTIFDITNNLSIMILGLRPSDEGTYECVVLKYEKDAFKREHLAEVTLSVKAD 10.6

Request: H18V/A26P/E35D/M47L/V68M/A71G (protein, UniProt P33681 35-288, looked up, variant H18V A26P E35D M47L V68M A71G) T-lymphocyte activation …: VIHVTKEVKEVATLSCGVNVSVEELPQTRIYWQKDKKMVLTMMSGDLNIWPEYKNRTIFDITNNLSIMILGLRPSDEGTYECVVLKYEKDAFKREHLAEVTLSVKADFPTPSISDFEIPTSNIRRIICSTSGGFPEPHLSWLENGEELNAINTTVSQDPETELYAVSSKLDFNMTTNHSFMCLIKYGHLRVNQTFNWNTTKQEHFPDNLLPSWAITLISVNGIFVICCLTYCFAPRCRERRRNERLRRESVRPV 21.4

Request: H18T/A26N/E35D/M47L/V68M/A71G (protein, UniProt P33681 35-288, looked up, variant H18T A26N E35D M47L V68M A71G, Fc fusion) T-lymphocyte activation …: VIHVTKEVKEVATLSCGTNVSVEELNQTRIYWQKDKKMVLTMMSGDLNIWPEYKNRTIFDITNNLSIMILGLRPSDEGTYECVVLKYEKDAFKREHLAEVTLSVKADFPTPSISDFEIPTSNIRRIICSTSGGFPEPHLSWLENGEELNAINTTVSQDPETELYAVSSKLDFNMTTNHSFMCLIKYGHLRVNQTFNWNTTKQEHFPDNLLPSWAITLISVNGIFVICCLTYCFAPRCRERRRNERLRRESVRPV 50.1

Request: H18V/A26Q/E35D/M47V/V68L/A71G/D90G (protein, UniProt P33681 35-288, looked up, variant H18V A26Q E35D M47V V68L A71G D90G) T-lymphocyte activation …: VIHVTKEVKEVATLSCGVNVSVEELQQTRIYWQKDKKMVLTMMSGDVNIWPEYKNRTIFDITNNLSILILGLRPSDEGTYECVVLKYEKGAFKREHLAEVTLSVKADFPTPSISDFEIPTSNIRRIICSTSGGFPEPHLSWLENGEELNAINTTVSQDPETELYAVSSKLDFNMTTNHSFMCLIKYGHLRVNQTFNWNTTKQEHFPDNLLPSWAITLISVNGIFVICCLTYCFAPRCRERRRNERLRRESVRPV 10.7

Request: H18I/A26P/E35D/M47V/V68M/A71G (protein, UniProt P33681 35-288, looked up, variant H18I A26P E35D M47V V68M A71G) T-lymphocyte activation …: VIHVTKEVKEVATLSCGINVSVEELPQTRIYWQKDKKMVLTMMSGDVNIWPEYKNRTIFDITNNLSIMILGLRPSDEGTYECVVLKYEKDAFKREHLAEVTLSVKADFPTPSISDFEIPTSNIRRIICSTSGGFPEPHLSWLENGEELNAINTTVSQDPETELYAVSSKLDFNMTTNHSFMCLIKYGHLRVNQTFNWNTTKQEHFPDNLLPSWAITLISVNGIFVICCLTYCFAPRCRERRRNERLRRESVRPV 25.2
